Value source: patent US20240116985A1

Molecular target: full-length beta-Catenin (Uniprot ID P35222) (Homo sapiens, UniProt P35222)
Construct: 10 nM full-length beta-Catenin (Uniprot ID P35222)
Experiment: Fluorescence polarization IC50 (beta-catenin / 5FAM-TCF4 10-53 competition)
Format: binding
Settings: fluorescence polarization; read-out: beta-Catenin FP IC50
Readings of IC50 for the listed compounds

[
  {
    "compound": "CC(=O)N1CCC[C@]12CC=CCCCC1(CCCC=CCCCOC(=O)N3CC[C@@](C(=O)N[C@@H](Cc4ccccc4)C(=O)N[C@@H](Cc4csc5ccccc45)C(=O)N[C@@H](Cc4c[nH]cn4)C(N)=O)(C3)NC(=O)[C@H](CC(C)C)NC(=O)[C@H](Cc3ccccc3)NC(=O)[C@H](C)NC(=O)[C@H](CCCCNC(C)C)NC(=O)[C@H](CCC(N)=O)NC(=O)[C@H](CC(=O)O)NC1=O)NC(=O)[C@H](CC1CCCCC1)NC(=O)[C@H](CC(N)=O)NC2=O (some centres unmarked)",
    "IC50, nM": 187
  },
  {
    "compound": "CC(=O)N1CCC[C@]12CC=CCCCC1(CCCC=CCCCCCC[C@@](C)(C(=O)N[C@@H](Cc3ccccc3)C(=O)N[C@@H](Cc3csc4ccccc34)C(=O)N[C@@H](CCC(N)=O)C(N)=O)NC(=O)[C@H](CC(C)C)NC(=O)[C@H](Cc3ccccc3)NC(=O)[C@H](C)NC(=O)[C@H](C)NC(=O)[C@H](CCC(=O)O)NC(=O)[C@H](CC(=O)O)NC1=O)NC(=O)[C@H](CO)NC(=O)[C@H](CC(=O)O)NC2=O (some centres unmarked)",
    "IC50, nM": 102
  }
]

---

Molecular target: full-length beta-Catenin (Uniprot ID P35222) (Homo sapiens, UniProt P35222)
Construct: 10 nM full-length beta-Catenin (Uniprot ID P35222)
Sequence (P35222 1-781): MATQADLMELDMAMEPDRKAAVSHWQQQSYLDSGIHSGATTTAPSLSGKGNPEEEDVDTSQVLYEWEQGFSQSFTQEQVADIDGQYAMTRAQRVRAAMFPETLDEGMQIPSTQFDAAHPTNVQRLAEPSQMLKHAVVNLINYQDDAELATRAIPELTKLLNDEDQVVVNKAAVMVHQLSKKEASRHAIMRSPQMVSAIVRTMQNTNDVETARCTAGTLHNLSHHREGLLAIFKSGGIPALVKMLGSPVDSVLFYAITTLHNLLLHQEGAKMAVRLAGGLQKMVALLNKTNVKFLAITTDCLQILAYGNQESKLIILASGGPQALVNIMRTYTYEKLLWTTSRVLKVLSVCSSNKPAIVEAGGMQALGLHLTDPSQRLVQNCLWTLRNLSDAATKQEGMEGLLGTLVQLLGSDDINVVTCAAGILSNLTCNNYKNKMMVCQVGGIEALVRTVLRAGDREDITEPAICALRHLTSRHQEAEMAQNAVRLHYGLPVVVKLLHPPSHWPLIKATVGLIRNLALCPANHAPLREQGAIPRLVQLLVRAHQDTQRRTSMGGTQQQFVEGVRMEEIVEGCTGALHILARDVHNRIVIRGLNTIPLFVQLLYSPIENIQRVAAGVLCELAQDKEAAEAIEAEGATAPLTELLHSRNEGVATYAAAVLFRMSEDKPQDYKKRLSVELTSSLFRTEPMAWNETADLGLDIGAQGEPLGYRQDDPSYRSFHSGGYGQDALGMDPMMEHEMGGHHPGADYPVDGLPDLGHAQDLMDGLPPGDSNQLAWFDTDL
Experiment: Fluorescence polarization IC50 (beta-catenin / 5FAM-TCF4 10-53 competition)
Type: binding
Settings: fluorescence polarization; read-out: beta-Catenin FP IC50
metric: log10(IC50) (log10 of the value in nM)

[
  {
    "compound": "CC(=O)N1CCC[C@]12CC=CCCCC1(CCCC=CCCCOC(=O)N3CC[C@@](C(=O)N[C@@H](Cc4ccsc4)C(=O)N[C@@H](Cc4csc5ccccc45)C(=O)N[C@@H](CCC(N)=O)C(N)=O)(C3)NC(=O)[C@H](CC(C)C)NC(=O)[C@H](Cc3ccccc3)NC(=O)[C@H](C)NC(=O)[C@H](C)NC(=O)[C@H](CCCC(=O)O)NC(=O)[C@H](CC(=O)O)NC1=O)NC(=O)[C@H](CC(C)(C)C)NC(=O)[C@H](CC(=O)O)NC2=O (some centres unmarked)",
    "experimental_target": "full-length beta-Catenin (Uniprot ID P35222) (Homo sapiens, UniProt P35222)",
    "log10(IC50)": 0.70
  },
  {
    "compound": "CC(=O)N1CCC[C@]12CC=CCCCC1(CCCC=CCCCOC(=O)N3CC[C@@](C(=O)N[C@@H](Cc4ccccc4C(F)(F)F)C(=O)N[C@@H](Cc4csc5ccccc45)C(=O)N[C@@H](CCC(N)=O)C(=O)N[C@@H](CC(C)C)C(=O)N[C@H](C(N)=O)[C@@H](C)O)(C3)NC(=O)[C@H](CC(C)C)NC(=O)[C@H](Cc3ccccc3)NC(=O)[C@H](C)NC(=O)[C@H](C)NC(=O)[C@H](Cc3cccc(C(=O)O)c3)NC(=O)[C@H](CC(=O)O)NC1=O)NC(=O)[C@H](CC(C)(C)C)NC(=O)[C@H](CC(=O)O)NC2=O (some centres unmarked)",
    "experimental_target": "full-length beta-Catenin (Uniprot ID P35222) (Homo sapiens, UniProt P35222)",
    "log10(IC50)": 1.89
  },
  {
    "compound": "CC(=O)N1CCC[C@]12CC=CCCCC1(CCCC=CCCCCCC[C@@](C)(C(=O)N[C@@H](Cc3ccccc3)C(=O)N[C@@H](Cc3csc4ccccc34)C(=O)N[C@@H](CCC(N)=O)C(N)=O)NC(=O)[C@H]([C@@H](C)O)NC(=O)[C@H](Cc3ccccc3)NC(=O)[C@H](C)NC(=O)[C@H](C)NC(=O)[C@H](CCC(=O)O)NC(=O)[C@H](CC(=O)O)NC1=O)NC(=O)[C@H](CC(C)C)NC(=O)[C@H](CC(=O)O)NC2=O (some centres unmarked) [I-623]",
    "experimental_target": "full-length beta-Catenin (Uniprot ID P35222) (Homo sapiens, UniProt P35222)",
    "log10(IC50)": 2.01
  },
  {
    "compound": "CC(=O)N1CCC[C@]12CC=CCCCC1(CCCC=CCCCOC(=O)N3CC[C@@](C(=O)N[C@@H](Cc4ccsc4)C(=O)N[C@@H](Cc4csc5ccccc45)C(=O)N[C@@H](C)C(N)=O)(C3)NC(=O)[C@H](CC(C)C)NC(=O)[C@H](Cc3ccccc3)NC(=O)[C@H](C)NC(=O)[C@H](Cc3c[nH]cn3)NC(=O)[C@H](Cc3cccc(C(=O)O)c3)NC(=O)[C@H](CC(=O)O)NC1=O)NC(=O)[C@H](CC(C)(C)C)NC(=O)[C@H](CC(=O)O)NC2=O (some centres unmarked)",
    "experimental_target": "full-length beta-Catenin (Uniprot ID P35222) (Homo sapiens, UniProt P35222)",
    "log10(IC50)": 0.90
  },
  {
    "compound": "CC(=O)N1CCC[C@]12CC=CCCCC1(CCCC=CCCCOC(=O)N3CC[C@@](C(=O)N[C@@H](Cc4ccsc4)C(=O)N[C@@H](Cc4csc5ccccc45)C(=O)N[C@@H](CCC(N)=O)C(N)=O)(C3)NC(=O)[C@H](CC(C)C)NC(=O)[C@H](Cc3ccccc3)NC(=O)[C@H](C)NC(=O)[C@H](C)NC(=O)[C@H](CCNCC(=O)O)NC(=O)[C@H](CC(=O)O)NC1=O)NC(=O)[C@H](CC(C)(C)C)NC(=O)[C@H](CC(=O)O)NC2=O (some centres unmarked)",
    "experimental_target": "full-length beta-Catenin (Uniprot ID P35222) (Homo sapiens, UniProt P35222)",
    "log10(IC50)": 1.88
  }
]
